- Assay System: R. sphaeroides cytochrome c oxidase (RsCcO) wild-type (Cereibacter sphaeroides, UniProt P33517+Q03736)
- Sequence (P33517 whole entry): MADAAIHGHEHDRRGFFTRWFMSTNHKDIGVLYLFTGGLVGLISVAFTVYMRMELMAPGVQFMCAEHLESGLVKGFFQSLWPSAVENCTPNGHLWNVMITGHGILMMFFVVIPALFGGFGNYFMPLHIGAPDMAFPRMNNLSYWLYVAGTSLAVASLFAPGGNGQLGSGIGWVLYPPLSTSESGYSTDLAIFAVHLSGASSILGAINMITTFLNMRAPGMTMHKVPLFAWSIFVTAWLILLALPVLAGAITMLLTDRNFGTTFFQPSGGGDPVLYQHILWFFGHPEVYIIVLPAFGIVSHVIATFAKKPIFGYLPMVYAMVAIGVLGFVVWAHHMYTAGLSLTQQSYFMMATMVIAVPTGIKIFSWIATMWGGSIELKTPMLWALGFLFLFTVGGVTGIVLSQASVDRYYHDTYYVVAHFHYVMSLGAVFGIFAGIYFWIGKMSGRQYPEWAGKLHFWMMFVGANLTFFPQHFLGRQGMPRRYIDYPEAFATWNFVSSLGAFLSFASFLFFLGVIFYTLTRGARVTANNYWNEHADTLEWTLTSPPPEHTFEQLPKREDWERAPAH
- Sequence (Q03736 26-303): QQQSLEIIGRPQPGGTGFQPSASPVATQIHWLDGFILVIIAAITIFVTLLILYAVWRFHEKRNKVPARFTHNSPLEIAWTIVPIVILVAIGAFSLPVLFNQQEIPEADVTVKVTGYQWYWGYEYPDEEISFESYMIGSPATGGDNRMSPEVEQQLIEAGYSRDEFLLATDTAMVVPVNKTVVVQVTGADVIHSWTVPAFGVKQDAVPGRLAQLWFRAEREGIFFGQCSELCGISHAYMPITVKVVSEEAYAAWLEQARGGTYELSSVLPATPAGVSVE
- Procedure Details: biochemical
- Format: biochemical, Rhodobacter sphaeroides
Consider the following molecules and their measured pIC50 readings.
Kindly note that pIC50 refers to -log10 of the concentration in mol/L and answer with the value alone.

Please review the following examples before continuing.
[[record]]
molecule = "C[C@H](CCC(=O)O)[C@H]1CC[C@H]2[C@@H]3CC[C@@H]4C[C@H](O)CC[C@]4(C)[C@H]3C[C@H](O)[C@]12C [DOC, deoxycholate]"
recorded_result = 2.85

[[record]]
molecule = "CC(=O)O[C@H]1C[C@@]2(C)[C@@H](C[C@@H](O)[C@H]3[C@@]4(C)CC[C@@H](O)[C@@H](C)[C@@H]4CC[C@@]32C)/C1=C(\\CCC=C(C)C)C(=O)O"
recorded_result = 2.47


Given the entry CC1=C(/C=C/C(C)=C/C=C/C(C)=C/C(=O)O)C(C)(C)CCC1 , report its measured pIC50.
2.77
